Test system: GRK1
Details: concentration: 1 μM, replicates: in singlicate; n = 1;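 note: KINOMEscan kinase panel screen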
Can you tell me %Inh for the items I'm about to list?
Numbers only; they are read as %.

Answer with reported %Inh of `CCc1ccnc(/C=C/c2n[nH]c3cc(Sc4ccccc4C(=O)NC)ccc23)c1`
2

Answer with reported %Inh of `Cc1cccc(-c2nc(-c3ccc(S(C)(=O)=O)cc3)sc2-c2ccncc2)c1`
0

Answer with reported %Inh of `NS(=O)(=O)CCc1cccc(Nc2nccc(-c3c(-c4cccc(NC(=O)c5c(F)cccc5F)c4)nn4ccccc34)n2)c1`
0

Answer with reported %Inh of `CN1c2ccc(NCc3ccc(F)cc3)cc2-c2c(cnn2C)S1(=O)=O`
11

Answer with reported %Inh of `COCCNC(=O)c1ccc(-c2cc(C(=O)NC3CC3)cc(F)c2C)cc1`
32

* * *

Tested on: MKNK1
Conditions: concentration: 1 μM, replicates: in singlicate; n = 1
Quick rule for you: %Inh at 20% or higher means YES, lower means NO.

# bool: %Inh of `O=c1cc(N2CCOCC2)nc2n(Cc3cccc(C(F)(F)F)c3)ccn12` >= 20%
NO

# bool: %Inh of `COc1cc2c(cc1OCCN1CCN(C)CC1)ncc1c3ccc(C#N)cc3[nH]c21` >= 20%
YES

# bool: %Inh of `CN(C(=O)c1ccc(-c2cc(-c3c[nH]nc3-c3ccccn3)ccn2)cc1)C1CCOCC1` >= 20%
NO

# bool: %Inh of `O=C(NOCC1CC1)c1ccc(F)c(F)c1Nc1ccc(I)cc1Cl` >= 20%
NO

# bool: %Inh of `Fc1ccc(-c2ncn(CCCN3CCOCC3)c2-c2ccccn2)cc1` >= 20%
NO

# bool: %Inh of `Cl.Nc1ncnc2occ(-c3ccc(NC(=O)Nc4cc(C(F)(F)F)ccc4F)cc3)c12` >= 20%
YES

# bool: %Inh of `O=c1cc(N2CCOCC2)nc2n(Cc3cccc(F)c3)ccn12` >= 20%
NO

# bool: %Inh of Cc1nnc(-c2ccc3occ(-c4ccc(C(C)O)cc4)c3c2)o1 (stereo not drawn) >= 20%
NO

# bool: %Inh of `CN1c2ccc(CNc3ccc(F)cc3)cc2-c2c(cnn2C)S1(=O)=O` >= 20%
NO

* * *

Tested on: RAF1
Conditions: concentration: 1 μM, replicates: in singlicate; n = 1
reportedMetric: %Inh (%)
Numbers only; they are read as %.

Answer with reported %Inh of `O=c1cc(N2CCOCC2)nc2n(Cc3cccc(C(F)(F)F)c3)ccn12`
5

Answer with reported %Inh of COc1ccc(Nc2nccc(N3CCC(NC(=O)Nc4cc(C)ccc4C)C3)n2)cc1 (centres unmarked)
13

Answer with reported %Inh of `N#Cc1c(N2CCOCC2)sc(-c2ccn[nH]2)c1-c1ccc(Cl)cc1`
11

Answer with reported %Inh of `COc1cc2c(cc1OCCN1CCN(C)CC1)ncc1c3ccc(C#N)cc3[nH]c21`
0

Answer with reported %Inh of `O=C(NCCCN1CCOCC1)c1cccc(Nc2nccc(Nc3ccc(Oc4ccccc4)cc3)n2)c1`
0

Answer with reported %Inh of `[2H]C([2H])(c1cccc(C(F)(F)F)c1C)n1ccn2c(=O)nc(N3CCOCC3)cc12`
10

Answer with reported %Inh of `CCc1ccnc(/C=C/c2n[nH]c3cc(Sc4ccccc4C(=O)NC)ccc23)c1`
0

Answer with reported %Inh of `Cc1ccc(NC(=O)c2ccnc(N3CCN(C)CC3)c2)cc1-c1ccc(C(=O)NCC2CC2)cc1`
10

Answer with reported %Inh of `COc1ccc(S(=O)(=O)NC2CCN(c3cc(C)nc(Nc4cccc(C#N)c4)n3)CC2)cc1.O=C(O)C(F)(F)F`
0

Answer with reported %Inh of COc1cc(Nc2nccc(N3CCC(NC(=O)c4cccc(NC(C)=O)c4)C3)n2)cc(OC)c1OC (centres unmarked)
0

Answer with reported %Inh of `Fc1ccc(-c2nn3c(OCC(F)(F)F)cccc3c2-c2ccncc2)cc1`
8

Answer with reported %Inh of `O=C(c1ccc(-c2cc(-c3c[nH]nc3-c3ccccn3)ccn2)cc1)N1CCOCC1`
9

Answer with reported %Inh of `Nc1nc(-c2ccc3c(N)n[nH]c3c2)cc(N2CCCC2)n1`
0

Answer with reported %Inh of `Cc1cccc(-c2nc(-c3ccc(S(C)(=O)=O)cc3)sc2-c2ccncc2)c1`
25

Answer with reported %Inh of `O=C(Nc1n[nH]c2cc(-c3cccc(F)c3)ccc12)C1CC1`
15

Answer with reported %Inh of Cc1c(Cn2c(C)nn3c(=O)cc(N4CCOC(C)C4)nc23)cccc1C(F)(F)F (centres unmarked)
0

Answer with reported %Inh of `COC(=O)Nc1nc2cc(Oc3ccc(NC(=O)Nc4cc(F)ccc4F)cc3)ccc2[nH]1.Cl`
89
